The reported numbers originate from the supplement of paper PMC8671470.

Readings of cell viability for the listed compounds
# Tested on: NOMO-1
# assay: cell viability (% survival relative to DMSO control, bortezomib = 0%); higher = less cytotoxic
# measurement_setup: 10 nM; 72 h
Express the result in % but write the number alone.

# compound, target, reading_unit, cell viability
rows = [
    ("C#Cc1cnc(O)nc1O", "NOMO-1", "%", 103),
    ("O=C(c1ccc(OCCN2CCCCC2)cc1)c1c(-c2ccc(O)cc2)sc2cc(O)ccc12", "NOMO-1", "%", 95.8),
    ("O=C(O)C(Cl)Cl [Dichloroacetate]", "NOMO-1", "%", 98.9),
    ("CC(C(=O)O)C(=O)O [Methylmalonate]", "NOMO-1", "%", 94.6),
    ("C1CCc2nnc(C34CC5CC(CC(C5)C3)C4)n2CC1", "NOMO-1", "%", 95.8),
]

Shift focus to the following entry.
Ask | Entry `O=C(O)C(S)=Cc1c[nH]c2ccc(F)cc12` , system NOMO-1: what cell viability was measured?
Reply | 97.9

----------
Readings of cell viability for the listed compounds
# Test system: myeloid leukemia patient primary cells Pat.6
# assay: cell viability (% survival relative to DMSO control); higher = less cytotoxic
# measurement_setup: 10000 nM; 72 h
# do not omit the unit; it follows the number

Known cell viability results, listed for orientation:
# compound, target, cell viability
measured = [
    ("CC12CCC(O)CC1CCC1C2CCC2(C)C(C3=CC(=O)OC3)CCC12O (centres undefined)", "myeloid leukemia patient primary cells Pat.6", "11.2%"),
    ("Sc1ncnc2nc[nH]c12", "myeloid leukemia patient primary cells Pat.6", "97.9%"),
    ("Clc1ccc(COC(Cn2ccnc2)c2ccc(Cl)cc2Cl)cc1 (centres undefined)", "myeloid leukemia patient primary cells Pat.6", "44.9%"),
]

Shift focus to the following entry.
Ask | Entry `Nc1ccn([C@@H]2O[C@H](CO)[C@@H](O)[C@@H]2O)c(=O)n1` , system myeloid leukemia patient primary cells Pat.6: what cell viability was measured?
Reply | 36.2%

----------
# Test system: myeloid leukemia patient primary cells Pat.11
# assay: cell viability (% survival relative to DMSO control); higher = less cytotoxic
# measurement_setup: 10 nM; 72 h
outcome_measure: cell viability

Known cell viability results, listed for orientation:
# compound, target, cell viability
records = [
    ("COc1c(C)c2c(c(O)c1C/C=C(\\C)CCC(=O)O)C(=O)OC2", "myeloid leukemia patient primary cells Pat.11", "> 100%"),
    ("CC(Cc1ccc(O)c(O)c1)C(C)Cc1ccc(O)c(O)c1 (stereo unspecified)", "myeloid leukemia patient primary cells Pat.11", "> 100%"),
    ("Sc1ncnc2nc[nH]c12", "myeloid leukemia patient primary cells Pat.11", "98.2%"),
]

Ask | Please look up its cell viability: `C[C@]12O[C@H](C[C@]1(O)CO)n1c3ccccc3c3c4c(c5c6ccccc6n2c5c31)CNC4=O`
Reply | 74.7%

Ask | Please look up its cell viability: `CCN(CC)CCN(Cc1ccc(-c2ccc(C(F)(F)F)cc2)cc1)C(=O)Cn1c(SCc2ccc(F)cc2)nc(=O)c2c1CCC2`
Reply | 98.3%

Ask | Please look up its cell viability: `C[C@H]1O[C@@H](O[C@H]2[C@@H](O)C[C@H](O[C@H]3[C@@H](O)C[C@H](O[C@H]4CC[C@@]5(C)[C@H](CC[C@@H]6[C@@H]5C[C@@H](O)[C@]5(C)[C@@H](C7=CC(=O)OC7)CC[C@]65O)C4)O[C@@H]3C)O[C@@H]2C)C[C@H](O)[C@@H]1O`
Reply | 97.6%

----------
# Test system: KCL-22
# assay: cell viability (% survival relative to DMSO control, bortezomib = 0%); higher = less cytotoxic
# measurement_setup: 10000 nM; 72 h
Each record's class is read off its cell viability using these ranges: low value: < 60%; medium value: ≥ 60% and < 90%; high value: ≥ 90%

Ask | Place this molecule in its band: `CC(C)Cc1sc(N)nc1-c1ccc(P(=O)(O)O)o1`
Reply | high value

Ask | Place this molecule in its band: O=C(c1ccc(OCCN2CCCCC2)cc1)c1c(-c2ccc(O)cc2)sc2cc(O)ccc12 [Raloxifene]
Reply | medium value

Ask | Place this molecule in its band: CC(/C=C1\SC(=S)N(CC(=O)O)C1=O)=C\c1ccccc1 [Epalrestat]
Reply | high value

Ask | Place this molecule in its band: O=C(O)c1cc2sccc2[nH]1 [4H-thieno[3,2-b]pyrrole-5-carboxylic acid]
Reply | high value

Ask | Place this molecule in its band: CCOC(=O)N1c2ccc(C(F)(F)F)cc2[C@@H](N(Cc2cc(C(F)(F)F)cc(C(F)(F)F)c2)C(=O)OC)C[C@H]1CC [Torcetrapib]
Reply | medium value

Ask | Place this molecule in its band: C1CCC(C(CC2CCCCN2)C2CCCCC2)CC1.O=C(O)/C=C\C(=O)O (stereo not given) [Perhexiline]
Reply | low value

Ask | Place this molecule in its band: Sc1ncnc2nc[nH]c12 [6-mercaptopurine]
Reply | low value

----------
# Tested on: HEL
# assay: cell viability (% survival relative to DMSO control, bortezomib = 0%); higher = less cytotoxic
# measurement_setup: 1 nM; 72 h
outcome_measure: cell viability (%)
Express the result in % but write the number alone.

Known cell viability results, listed for orientation:
# compound, target, obs_value
rows = [
    ("C[C@H]1O[C@@H](O[C@H]2[C@@H](O)C[C@H](O[C@H]3[C@@H](O)C[C@H](O[C@H]4CC[C@@]5(C)[C@H](CC[C@@H]6[C@@H]5C[C@@H](O)[C@]5(C)[C@@H](C7=CC(=O)OC7)CC[C@]65O)C4)O[C@@H]3C)O[C@@H]2C)C[C@H](O)[C@@H]1O", "HEL", 97.3),
    ("O=C(O)CC[C@H](NC(=O)c1ccc([N+](=O)[O-])cc1)C(=O)O [(S)-2-(4-Nitrobenzamido)pentanedioic acid]", "HEL", 89.9),
    ("Cc1c(-c2ccccc2)oc2c(C(=O)OCCN3CCCCC3)cccc2c1=O.Cl [Flavoxate]", "HEL", 91),
    ("C=CCc1ccc2c(c1O)C(=O)c1ccccc1C2=O", "HEL", 104),
    ("C[C@]12O[C@H](C[C@]1(O)CO)n1c3ccccc3c3c4c(c5c6ccccc6n2c5c31)CNC4=O", "HEL", 95.5),
]

Ask | Please look up its cell viability: C1CCC(C(CC2CCCCN2)C2CCCCC2)CC1.O=C(O)/C=C\C(=O)O (stereo unspecified)
Reply | 108

Ask | Please look up its cell viability: `O=C(c1ccc(OCCN2CCCCC2)cc1)c1c(-c2ccc(O)cc2)sc2cc(O)ccc12`
Reply | 90.2

Ask | Please look up its cell viability: `Cc1coc2c1C(=O)C(=O)c1c-2ccc2c(C)cccc12`
Reply | 121

Ask | Please look up its cell viability: `O=C1Nc2ccccc2/C1=C\NCCc1ccc(O)c(O)c1`
Reply | 101

Ask | Please look up its cell viability: `COc1cc2c(NC3CCN(C)CC3)nc(N3CCCN(C)CC3)nc2cc1OCCCN(C)C`
Reply | 84.8

----------
Readings of cell viability for the listed compounds
# System: HL-60
# assay: cell viability (% survival relative to DMSO control); higher = less cytotoxic
# measurement_setup: 0.001 µM; 72 h; co-treatment: DMSO vehicle

Known cell viability results, listed for orientation:
# compound, cell viability
rows = [
    ("O=C(O)c1cc2sccc2[nH]1 [4H-thieno[3,2-b]pyrrole-5-carboxylic acid]", "102%"),
    ("COc1cc2c(NC3CCN(C)CC3)nc(N3CCCN(C)CC3)nc2cc1OCCCN(C)C", "104%"),
    ("Cc1c2c(=O)n(-c3ccccc3Cl)[nH]c2cc(=O)n1Cc1ccccn1", "103%"),
]

Ask | Please look up its cell viability: `Clc1ccc2c(c1Cl)CNCC2`
Reply | 100%

Ask | Please look up its cell viability: `O=P(O)(O)C(O)(Cn1ccnc1)P(=O)(O)O`
Reply | 98.3%

----------
# System: HL-60
# assay: cell viability (% survival relative to DMSO control); higher = less cytotoxic
# measurement_setup: 1 µM; 72 h; co-treatment: GSK2194069 100 nM
Readings of cell viability for the listed molecules
Express the result in % but write the number alone.

# molecule, cell viability [%]
records = [
    ("O=C1Nc2ccccc2/C1=C\\NCCc1ccc(O)c(O)c1", 99),
]

Ask | Entry Cc1c(-c2ccccc2)oc2c(C(=O)OCCN3CCCCC3)cccc2c1=O.Cl [Flavoxate] , system HL-60: what cell viability was measured?
Reply | 98.1

Ask | Entry `CCOC(=O)N1c2ccc(C(F)(F)F)cc2[C@@H](N(Cc2cc(C(F)(F)F)cc(C(F)(F)F)c2)C(=O)OC)C[C@H]1CC` , system HL-60: what cell viability was measured?
Reply | 94.9

Ask | Entry `O=C(c1ccc(OCCN2CCCCC2)cc1)c1c(-c2ccc(O)cc2)sc2cc(O)ccc12` , system HL-60: what cell viability was measured?
Reply | 87.1

Ask | Entry `O=C(COc1ccc(C(=O)c2ccccc2)cc1)NC1CCN(Cc2ccccc2)CC1` , system HL-60: what cell viability was measured?
Reply | 92.1

Ask | Entry `O=C(O)c1nn(Cc2ccc(Cl)cc2Cl)c2ccccc12` , system HL-60: what cell viability was measured?
Reply | 101

Ask | Entry `C=CCc1ccc2c(c1O)C(=O)c1ccccc1C2=O` , system HL-60: what cell viability was measured?
Reply | 100

Ask | Entry O=C(O)C(Cl)Cl [Dichloroacetate] , system HL-60: what cell viability was measured?
Reply | 98.3

Ask | Entry O=C1Oc2ccccc2C(=O)C1CC1C(=O)Oc2ccccc2C1=O (centres undefined) , system HL-60: what cell viability was measured?
Reply | 98.8
